# Test system: T-47D breast
# test-details: NCI-60 one-dose screen, 48 h (100 = growth as untreated, 0 = no growth, -100 = all killed)
# test-parameters: 10 µM unless noted
Compounds without any hit were thinned out: in the full panel of roughly 83,000, 20% have a hit.
Exercise: state measured growth for each of the compounds provided.
Give bare numbers, in %.

Just so you know, measured growth for `COc1cc2oc(-c3cccc(C(=O)Nc4ccc5c(c4)OCO5)c3)cc(=O)c2c(O)c1OC` came out at 69.5

Just so you know, measured growth for `CCOC(=O)Oc1c(OC)cc(C(=O)c2ccc(OC)c(O)c2OC)cc1OC` came out at 43.8

Just so you know, measured growth for `O=S(=O)(NCCNc1nccc(-c2c(-c3cccc(O)c3)nc3occn23)n1)c1ccc(Cl)cc1` came out at 91.7

Just so you know, measured growth for `COc1cc(CC(=O)c2ccc(O)c(OC)c2)ccc1O` came out at 89.6

Just so you know, measured growth for `CCOC(=O)c1cc(C(=O)c2ccc(OC)c(OC)c2)n2ccc(/C=C/c3cc[n+](CC(=O)c4ccc(OC)c(OC)c4)cc3)cc12` came out at 89.9

Just so you know, measured growth for `COc1c(Cl)c2c(c(OC)c1OC)-c1ccc(SC)c(=O)cc1[C@@H](NC(=O)OCC(F)(F)F)CC2` came out at 43.1

Please report growth for every entry that follows.
1. C/C(=N\Nc1cc(C)nc2ccc(Br)cc12)c1ccc([N+](=O)[O-])cc1
2. CCN(CC)CCCC(C)Nc1cc(O)cc2cccnc12 (stereo unspecified)
3. C[C@H]1[C@H](C)CC[C@]2(C(=O)NCC#CCN3CCN(C)CC3)CC[C@]3(C)C(=CC[C@@H]4[C@@]5(C)Cc6c([nH]c7ccccc67)C(C)(C)[C@@H]5CC[C@]43C)[C@H]12
4. CC1=CCC(OC(=O)C(C)(O)CCC(O)(C(=O)OC2(C)C=CC(O)(C(C)C)CC2)C(C)C)(C(C)C)CC1 (stereo unspecified)
5. COc1ccc(C(=O)c2cc(C)c(OC)c(C)c2)c(OC)c1N(C(=O)CCl)C(=O)CCl

// result
1. 62
2. 110
3. 76.7
4. 93.9
5. 51.2

Please report growth for every entry that follows.
1. C=C1C(=O)O[C@H]2[C@H]1CC/C(CNC(=O)c1cccc3ccccc13)=C\CC[C@@]1(C)O[C@@H]21
2. CCCCNC(=O)Oc1ccc(/C(=C(\C)c2ccccc2)c2ccc(OCCN3CCCCC3)cc2)cc1
3. COc1ccc(C(=O)c2cc(OC)c(OC)c(OC)c2)cc1O
4. C=C1C(=O)O[C@H]2[C@H]1CC/C(CNS(=O)(=O)c1cccc3ccccc13)=C\CC[C@@]1(C)O[C@@H]21
5. C=C(C)[C@@H]1CC[C@]2(CN)CC[C@]3(C)[C@H](CC[C@@H]4[C@@]5(C)CCCNC(C)(C)[C@@H]5CC[C@]43C)[C@@H]12

// result
1: 46; 2: 31.6; 3: 54.7; 4: 24.5; 5: -10.1

###

# Test system: RPMI-8226 leukemia
# test-details: NCI-60 one-dose screen, 48 h
# test-parameters: 10 µM unless noted
This is part of a sample that, as a whole, favours compounds with a hit. Of some 83,000 tested, about 20% had one in any assay. Calls of active or inactive are those of the source. How the source made its calls: active means growth percent below 10; inactive means the rest.
Return exactly one item of active, inactive

// query Would you mind telling me which call this test gave C=C1C(=O)O[C@H]2[C@H]1CC/C(COC(=O)NCC(C)c1ccc(CC(C)C)cc1)=C\CC[C@@]1(C)O[C@@H]21 (stereo partly drawn) ?
// result active

// query Would you mind telling me which call this test gave `CNC(=O)c1cncc(Cn2nc(C)c(NC(=O)c3ccc(COc4ccc(C(F)(F)F)cc4C)cc3)c2C)c1` ?
// result inactive

Continuing:
// query Would you mind telling me which call this test gave `CCOc1ccc(/C=N/Nc2cc(C)nc3ccc(Br)cc23)cc1` ?
// result inactive

// query Would you mind telling me which call this test gave `Brc1ccc(Nc2csc(-c3ccccn3)n2)cc1` ?
// result inactive

// query Would you mind telling me which call this test gave `Cc1ccc(-c2[nH][nH]c(=O)c2-c2nc3ccccc3s2)cc1` ?
// result inactive

// query Would you mind telling me which call this test gave `Cc1cc2nc3c4cc([N+](=O)[O-])ccc4n(CCN(C)C)c3nc2cc1C` ?
// result active

// query Would you mind telling me which call this test gave COc1ccc(C(=O)C2C(C#N)C(C#N)C3C=Cc4ccccc4N32)cc1 (stereo not drawn) ?
// result inactive

// query Would you mind telling me which call this test gave `CCN(CC)CCn1c(=O)c2cc(OC)c(OC)cc2c2ccc3cc4c(cc3c21)OCO4` ?
// result active

// query Would you mind telling me which call this test gave `COc1cc2oc(-c3cccc(C(=O)Nc4ccc(Cl)cc4)c3)cc(=O)c2c(O)c1OC` ?
// result inactive

// query Would you mind telling me which call this test gave `C=C1C(=O)O[C@H]2[C@H]1CC/C(CNS(=O)(=O)c1cccc3ccccc13)=C\CC[C@@]1(C)O[C@@H]21` ?
// result active

###

# Test system: NCI/ADR-RES ovarian
# test-details: NCI-60 one-dose screen, 48 h (100 = growth as untreated, 0 = no growth, -100 = all killed)
# test-parameters: 10 µM unless noted
About 83,000 compounds went through this panel and 20% of them were active in at least one assay; those are over-represented in the sample as a whole. Calls of active or inactive are those of the source. The calls were made as follows: active = growth percent below 10; inactive = the rest.
Exercise: state measured growth for each of the compounds provided.

Here's what some known entries look like.
Entry `C=C(C)[C@@H]1CC[C@]2(C(=O)N3CCN(C)CC3)CC[C@]3(C)[C@H](CC[C@@H]4[C@@]5(C)C/C(=C/c6cccnc6)C(=O)C(C)(C)[C@@H]5CC[C@]43C)[C@@H]12` , tested on NCI/ADR-RES ovarian, has a reported growth of 64.2% (inactive)

Entry C/C=C(\C)C(=O)NC1=CC[C@@]2(C)C(=CCC3C2CC[C@@]2(C)C3CC[C@@H]2C(C)N(C)C)C1=O (stereo partly drawn) , tested on NCI/ADR-RES ovarian, has a reported growth of 55.7% (inactive)

Continuing:
Entry `Cn1ccnc1C(=O)/C=C/c1ccc(CC(=O)Nc2ccc(Cl)cc2)cc1` , tested on NCI/ADR-RES ovarian, has a reported growth of 10.8% (inactive)

###

# System: CCRF-CEM leukemia
# test-details: NCI-60 one-dose screen, 48 h (100 = growth as untreated, 0 = no growth, -100 = all killed)
# test-parameters: 10 µM unless noted
The panel holds about 83,000 compounds, 20% with a hit somewhere; the sample as a whole holds those more often. Calls of active or inactive are those of the source. The calls were made as follows: active = growth percent below 10; inactive = the rest.
outcome-measure: growth

Here's what some known entries look like.
Entry `CC(=O)O[C@H]1Cc2c([nH]c3ccccc23)[C@@H](c2ccc(Cl)cc2)N1C(=O)CCNC(C)(C)C` , tested on CCRF-CEM leukemia, has a reported growth of 41% (inactive)

Entry `O=S(=O)(NCCNc1nccc(-c2c(-c3cccc(O)c3)nc3occn23)n1)c1cccc(F)c1` , tested on CCRF-CEM leukemia, has a reported growth of 91.7% (inactive)

Entry `O=C1Nc2cc(-c3ccc(NC(=O)c4ccccc4)cc3)ccc2/C1=C/c1ccc[nH]1` , tested on CCRF-CEM leukemia, has a reported growth of 92.4% (inactive)

Please report growth for every entry that follows.
1. O=C1Nc2cc(-c3cccc([N+](=O)[O-])c3)ccc2/C1=C/c1ccc[nH]1
2. CCOc1ccc(/C=N/Nc2cc(C)nc3ccc(Br)cc23)cc1
3. O=C1NN(C(=O)c2ccccc2)C(c2ccc(Cl)c(Cl)c2)=C/C1=C\c1ccc([N+](=O)[O-])cc1

// result
["91.5% (inactive)", "38.9% (inactive)", "88.5% (inactive)"]

###

# Test system: SK-MEL-28 melanoma
# test-details: NCI-60 one-dose screen, 48 h (100 = growth as untreated, 0 = no growth, -100 = all killed)
# test-parameters: 10 µM unless noted
# Description: Growth inhibition of the SK-MEL-28 human tumor cell line is measured as a screen for anti-cancer activity. Cells are grown in 96 well plates and exposed to the test compound for 48 hours. Compounds are tested at a single concentration, which is 10^-5 M for most compounds. The reported endpoint is percent growth (GI% or GIPRCNT), where numbers from 0 - 100% represent growth inhibition, and numbers from -100% - 0 represent cell death. For example, a value of 40 represents 60% growth inhibition. […]
The panel holds about 83,000 compounds, 20% with a hit somewhere; the sample as a whole holds those more often.
Exercise: state measured growth for each of the molecules provided.
Answers are plain numbers, in %.

Please report growth for every entry that follows.
1. C#CCNC(=O)[C@H](Cc1ccccc1)NC(=O)[C@]12CC[C@@H](C(=C)C)[C@@H]1[C@H]1CC[C@@H]3[C@@]4(C)CCC(=O)C(C)(C)[C@@H]4CC[C@@]3(C)[C@]1(C)CC2
2. O=C1c2ccc3c4c(ccc(c24)C(=O)N1CCCNCc1ccccc1)C(=O)N(CCCNCc1ccccc1)C3=O
3. COc1cc(NCCCCCNC(C)(C)C)c2ncccc2c1
4. CC1=CCC(OC(=O)C(C)(O)CCC(O)(C(=O)OC2(C)C=CC(O)(C(C)C)CC2)C(C)C)(C(C)C)CC1 (stereo not given)
5. O=S(=O)(NCCCNc1nccc(-c2c(-c3cccc(F)c3)nc3sccn23)n1)c1cccc2ccccc12

// result
1. 98.1
2. -95.9
3. 107
4. 114
5. 77.5

Please report growth for every entry that follows.
1. Fc1ccc(-c2cn3c(nc4ccccc43)c(-c3ccccc3)n2)cc1
2. O=C(Nc1ccc(Cl)cc1)c1cc(NCc2cc(O)ccc2O)ccc1O
3. Cc1cnc(C(=O)Nc2nc3ccc(S(=O)(=O)Nc4ccc(C(C)(C)C)cc4)cc3[nH]2)cn1

// result
1. 185
2. 99.2
3. 35.8

Please report growth for every entry that follows.
1. C=C1C(=O)O[C@H]2[C@H]1CC/C(COC(=O)NCc1c[nH]c3ccc(Br)cc13)=C\CC[C@@]1(C)O[C@@H]21
2. NNC(=O)c1ccc(-n2nc(-c3ccccc3)c3ccccc32)cc1
3. COc1cc(/C=N/NC(=O)c2cnn3c2NC(c2ccccc2)C3)ccc1OCc1ccccc1 (stereo not given)
4. COc1ccc(/C=C2\COc3ccc(-c4ccccc4)cc3C2=O)c(OC)c1
5. N#Cc1c(NCc2ccccc2I)sc2c1CCCCC2

// result
1. -33.5
2. 83.9
3. 24.1
4. 108
5. 110
